Test system: 855422-203-R-J1-PDC spheroids with HUVEC/MSC, viability
experiment description: Anticancer human tumor 855422-203-R-J1-PDC patient-derived bladder carcinoma cell line growth inhibition [PI3K]
condition context: curve of first compound; second compound 0.316 µM
IC50: recorded values

molecule	experimental system	IC50
CC(C)NCC(C(=O)N1CCN(c2ncnc3c2C(C)CC3O)CC1)c1ccc(Cl)cc1 (stereo not drawn) + COc1c(OCCCN2CCOCC2)ccc2c3n(c(=NC(=O)c4cnc(N)nc4)nc12)CCN3	855422-203-R-J1-PDC spheroids with HUVEC/MSC, viability	< 0.0316 µM
CC1(C)CCC(Nc2ncc(C(F)(F)F)c(-c3c[nH]c4c(P(C)(C)=O)c(C#N)ccc34)n2)CN1 (stereo not drawn) + Cc1nc(NC(=O)N2CCCC2C(N)=O)sc1-c1ccnc(C(C)(C)C(F)(F)F)c1	855422-203-R-J1-PDC spheroids with HUVEC/MSC, viability	< 0.0316 µM
C[C@@H](NC(=O)c1ncnc(N)c1Cl)c1ncc(C(=O)Nc2cc(C(F)(F)F)c(Cl)cn2)s1 + COc1c(OCCCN2CCOCC2)ccc2c3n(c(=NC(=O)c4cnc(N)nc4)nc12)CCN3	855422-203-R-J1-PDC spheroids with HUVEC/MSC, viability	< 0.0316 µM

---

Test system: 855422-203-R-J1-PDC spheroids with HUVEC/MSC, viability
experiment description: Anticancer human tumor 855422-203-R-J1-PDC cell line growth inhibition [PI3K];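 further: agents incubated with spheroids for one week before read-out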;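 on viability, T/C: 100% = DMSO vehicle-treated control wells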
condition context: second compound 0.01 µM; first compound 0.0316 µM; stronger effect = lower value
Could you please mark label 1 for values of viability, T/C below 90% and label 0 for values at or above it?

molecule	category
CCN1CCN(Cc2ccc(Nc3ncc(F)c(-c4cc(F)c5nc(C)n(C(C)C)c5c4)n3)nc2)CC1 + COc1c(OCCCN2CCOCC2)ccc2c3n(c(=NC(=O)c4cnc(N)nc4)nc12)CCN3	label 1
CNC(=O)c1ccc(N2C(=S)N(c3ccc(C#N)c(C(F)(F)F)c3)C(=O)C2(C)C)cc1F + CC(Nc1ccc2c(c1)OCCn1cc(N3C(=O)OCC3C(F)F)nc1-2)C(N)=O	label 0
CC(C)NCC(C(=O)N1CCN(c2ncnc3c2C(C)CC3O)CC1)c1ccc(Cl)cc1 (stereo not given) + CC(Nc1ccc2c(c1)OCCn1cc(N3C(=O)OCC3C(F)F)nc1-2)C(N)=O	label 1
CC(C)n1nc(-c2ccc3oc(N)nc3c2)c2c(N)ncnc21 + CC(Nc1ccc2c(c1)OCCn1cc(N3C(=O)OCC3C(F)F)nc1-2)C(N)=O	label 1
CC(C)NCC(C(=O)N1CCN(c2ncnc3c2C(C)CC3O)CC1)c1ccc(Cl)cc1 (stereo not given) + COc1c(OCCCN2CCOCC2)ccc2c3n(c(=NC(=O)c4cnc(N)nc4)nc12)CCN3	label 1
Cn1nccc1Nc1nccc(-c2ccn(C(CO)c3ccc(Cl)c(F)c3)c(=O)c2)n1 (stereo not given) + CC(Nc1ccc2c(c1)OCCn1cc(N3C(=O)OCC3C(F)F)nc1-2)C(N)=O	label 0
C[C@@H](NC(=O)c1ncnc(N)c1Cl)c1ncc(C(=O)Nc2cc(C(F)(F)F)c(Cl)cn2)s1 + CC(Nc1ccc2c(c1)OCCn1cc(N3C(=O)OCC3C(F)F)nc1-2)C(N)=O	label 0

---

Readings of viability, T/C for the listed molecules
System: 855422-203-R-J1-PDC spheroids with HUVEC/MSC, viability
experiment description: Anticancer human tumor 855422-203-R-J1-PDC cell line growth inhibition [PI3K];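 further: agents incubated with spheroids for one week before read-out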;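 on viability, T/C: 100% = DMSO vehicle-treated control wells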
condition context: second compound 10 µM; first compound 10 µM; stronger effect = lower value
reported property: viability, T/C (%)

molecule	experimental system	endpoint unit	numeric readout
Cn1ncc(Cl)c1-c1cc(C(=O)NC(CN)Cc2cccc(F)c2)sc1Cl (stereo not drawn) + CC(Nc1ncnc2nc[nH]c12)c1cc2cccc(Cl)c2c(=O)n1-c1ccccc1	855422-203-R-J1-PDC spheroids with HUVEC/MSC, viability	%	5.58
C[C@@H](NC(=O)c1ncnc(N)c1Cl)c1ncc(C(=O)Nc2cc(C(F)(F)F)c(Cl)cn2)s1 + Cc1nc(NC(=O)N2CCCC2C(N)=O)sc1-c1ccnc(C(C)(C)C(F)(F)F)c1	855422-203-R-J1-PDC spheroids with HUVEC/MSC, viability	%	4.33
Cn1ncc(Cl)c1-c1cc(C(=O)NC(CN)Cc2cccc(F)c2)sc1Cl (stereo not drawn) + Cc1nc(NC(=O)N2CCCC2C(N)=O)sc1-c1ccnc(C(C)(C)C(F)(F)F)c1	855422-203-R-J1-PDC spheroids with HUVEC/MSC, viability	%	0.43
CC1(C)CCC(CN2CCN(c3ccc(C(=O)NS(=O)(=O)c4ccc(NCC5CCOCC5)c([N+](=O)[O-])c4)c(Oc4cnc5[nH]ccc5c4)c3)CC2)=C(c2ccc(Cl)cc2)C1 + Cc1nc(NC(=O)N2CCCC2C(N)=O)sc1-c1ccnc(C(C)(C)C(F)(F)F)c1	855422-203-R-J1-PDC spheroids with HUVEC/MSC, viability	%	0.6
CC(Cn1ccc(-c2ccc(C#N)c(Cl)c2)n1)NC(=O)c1cc(C(C)O)[nH]n1 (stereo not drawn) + Cc1nc(NC(=O)N2CCCC2C(N)=O)sc1-c1ccnc(C(C)(C)C(F)(F)F)c1	855422-203-R-J1-PDC spheroids with HUVEC/MSC, viability	%	17.4
CC(C)NCC(C(=O)N1CCN(c2ncnc3c2C(C)CC3O)CC1)c1ccc(Cl)cc1 (stereo not drawn) + CC(Nc1ncnc2nc[nH]c12)c1cc2cccc(Cl)c2c(=O)n1-c1ccccc1	855422-203-R-J1-PDC spheroids with HUVEC/MSC, viability	%	15.2
C[C@@H](NC(=O)c1ncnc(N)c1Cl)c1ncc(C(=O)Nc2cc(C(F)(F)F)c(Cl)cn2)s1 + CC(Nc1ncnc2nc[nH]c12)c1cc2cccc(Cl)c2c(=O)n1-c1ccccc1	855422-203-R-J1-PDC spheroids with HUVEC/MSC, viability	%	54.4
CC(Cn1ccc(-c2ccc(C#N)c(Cl)c2)n1)NC(=O)c1cc(C(C)O)[nH]n1 (stereo not drawn) + CC(Nc1ncnc2nc[nH]c12)c1cc2cccc(Cl)c2c(=O)n1-c1ccccc1	855422-203-R-J1-PDC spheroids with HUVEC/MSC, viability	%	70

---

Test system: 855422-203-R-J1-PDC spheroids with HUVEC/MSC, viability
experiment description: Anticancer human tumor 855422-203-R-J1-PDC cell line growth inhibition [PI3K]; active means viability on the fitted dose curve at most 10% of control; inactive means the rest;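 further: agents incubated with spheroids for one week before read-out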
condition context: second compound 0.316 µM; first compound 0.01 µM
Source text: Combinatorial screen of targeted agents with the PI3K inhibitors inavolisib, alpelisib, duvelisib, and copanlisib in multi-cell type tumor spheroids A high-throughput screen of multi-cell type tumor spheroids was designed to identify active combinations of targeted small molecules and PI3K pathway inhibitors. […] Compounds. […] If the clinical Cmax for an agent had not been determined, the highest concentration tested was 10 microM. […]
Outcomes: 1 for active, 0 for inactive

compound	category
CC(=O)c1c(C)c2cnc(Nc3ccc(N4CCNCC4)cn3)nc2n(C2CCCC2)c1=O + COc1c(OCCCN2CCOCC2)ccc2c3n(c(=NC(=O)c4cnc(N)nc4)nc12)CCN3	1
CC(C)n1nc(-c2ccc3oc(N)nc3c2)c2c(N)ncnc21 + CC(Nc1ncnc2nc[nH]c12)c1cc2cccc(Cl)c2c(=O)n1-c1ccccc1	0
CCN1CCN(Cc2ccc(Nc3ncc(F)c(-c4cc(F)c5nc(C)n(C(C)C)c5c4)n3)nc2)CC1 + CC(Nc1ccc2c(c1)OCCn1cc(N3C(=O)OCC3C(F)F)nc1-2)C(N)=O	0
CC(=O)c1c(C)c2cnc(Nc3ccc(N4CCNCC4)cn3)nc2n(C2CCCC2)c1=O + Cc1nc(NC(=O)N2CCCC2C(N)=O)sc1-c1ccnc(C(C)(C)C(F)(F)F)c1	0
CC(C)n1nc(-c2ccc3oc(N)nc3c2)c2c(N)ncnc21 + Cc1nc(NC(=O)N2CCCC2C(N)=O)sc1-c1ccnc(C(C)(C)C(F)(F)F)c1	0
CC(C)n1nc(-c2ccc3oc(N)nc3c2)c2c(N)ncnc21 + COc1c(OCCCN2CCOCC2)ccc2c3n(c(=NC(=O)c4cnc(N)nc4)nc12)CCN3	1
CCN1CCN(Cc2ccc(Nc3ncc(F)c(-c4cc(F)c5nc(C)n(C(C)C)c5c4)n3)nc2)CC1 + CC(Nc1ncnc2nc[nH]c12)c1cc2cccc(Cl)c2c(=O)n1-c1ccccc1	0

---

System: 855422-203-R-J1-PDC spheroids with HUVEC/MSC, viability
experiment description: Anticancer human tumor 855422-203-R-J1-PDC cell line growth inhibition [PI3K];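 further: agents incubated with spheroids for one week before read-out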
condition context: curve of first compound; second compound 0.1 µM
Reported IC50 values for the following compounds.

compound	IC50
C[C@@H](NC(=O)c1ncnc(N)c1Cl)c1ncc(C(=O)Nc2cc(C(F)(F)F)c(Cl)cn2)s1 + Cc1nc(NC(=O)N2CCCC2C(N)=O)sc1-c1ccnc(C(C)(C)C(F)(F)F)c1	> 10 µM
CC1(C)CCC(Nc2ncc(C(F)(F)F)c(-c3c[nH]c4c(P(C)(C)=O)c(C#N)ccc34)n2)CN1 (stereo not given) + Cc1nc(NC(=O)N2CCCC2C(N)=O)sc1-c1ccnc(C(C)(C)C(F)(F)F)c1	< 0.0316 µM
C=CC(=O)N1CCN(c2nc(=O)n(-c3c(C)ccnc3C(C)C)c3nc(-c4c(O)cccc4F)c(F)cc23)C(C)C1 (stereo not given) + CC(Nc1ccc2c(c1)OCCn1cc(N3C(=O)OCC3C(F)F)nc1-2)C(N)=O	> 10 µM
Cn1ncc(Cl)c1-c1cc(C(=O)NC(CN)Cc2cccc(F)c2)sc1Cl (stereo not given) + COc1c(OCCCN2CCOCC2)ccc2c3n(c(=NC(=O)c4cnc(N)nc4)nc12)CCN3	< 0.0316 µM
CNC(=O)c1ccc(N2C(=S)N(c3ccc(C#N)c(C(F)(F)F)c3)C(=O)C2(C)C)cc1F + CC(Nc1ncnc2nc[nH]c12)c1cc2cccc(Cl)c2c(=O)n1-c1ccccc1	> 10 µM
